Source listed as ChEMBL document CHEMBL1201862.

testSystem: Heat shock protein HSP 90-alpha (Homo sapiens)
Assay type: functional, organism-based
The source made the active and inactive calls.
Task for the reader: assign each of the following compounds its reported AC50.

Prompt: Return AC50 measured with Heat shock protein HSP 90-alpha (Homo sapiens) given this compound: CCN(CC)C1CC(=O)N(c2ccc(Br)cc2)C1=O (stereo not given)
Response: 4.04 µM (active)

Prompt: Another compound to look at: O=C(/C=C/c1cccc(C(F)(F)F)c1)Nc1cccc(C(F)(F)F)c1
Response: 4.19 µM (active)

Prompt: Again, but for Cc1ccc(O)c(N=Nc2nccs2)c1
Response: 2.1 µM (active)

Prompt: Also Cc1nn(-c2nc3ccccc3[nH]2)c(=O)c2ccccc12 ?
Response: 4.97 µM (active)

Prompt: And for Cc1cc(C)c2c(N=NN(C)C)[nH]nc2n1 ?
Response: 3.96 µM (active)
